target.or.test.system: T1, CRBN, Q96SW2;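 note: pooled lentiviral library of zinc finger degron-EGFP fusions in mCherry-positive Jurkat cells, FACS-sorted after compound exposure, with degron abundance counted by next-generation sequencing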
T1 chain: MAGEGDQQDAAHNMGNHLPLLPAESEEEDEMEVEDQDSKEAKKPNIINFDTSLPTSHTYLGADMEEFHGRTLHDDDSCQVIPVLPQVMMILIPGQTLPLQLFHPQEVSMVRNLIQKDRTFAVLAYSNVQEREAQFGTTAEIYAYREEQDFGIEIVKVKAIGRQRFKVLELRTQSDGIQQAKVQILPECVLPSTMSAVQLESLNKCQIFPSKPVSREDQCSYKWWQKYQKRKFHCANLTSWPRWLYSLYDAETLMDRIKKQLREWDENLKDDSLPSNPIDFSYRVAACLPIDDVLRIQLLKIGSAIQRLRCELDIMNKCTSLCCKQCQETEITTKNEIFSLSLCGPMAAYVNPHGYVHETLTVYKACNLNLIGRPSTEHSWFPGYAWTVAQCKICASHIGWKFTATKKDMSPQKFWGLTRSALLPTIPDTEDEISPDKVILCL
assay.protocol: log2 fold change of degron read counts, EGFP-low vs EGFP+ sorted cells (limma voom), compound-induced degradation; higher = more compound-induced degradation of the degron-EGFP fusion; degrons are variants of IKZF1/3 zinc finger 2; compound dose not given here
condition.context: Jurkat; 18 h; compound: compound 19 (5-tert-butyl-thalidomide)
In all, about 8,300 sequences were measured (“log2 fold change of degron read counts, EGFP-low vs EGFP+ sorted cells (limma voom), compound-induced degradation”: median about -1.1, highest 2% from about 3.2 on). This excerpt belongs to a sample that is enriched for the highest values.
property: log2 fold change of degron read counts
I'd appreciate a reply containing only the number, no unit.

sequence_chain="FYCEICGAFFTQKGNLLRHIKL [46F_47Y_49E_50I_52G_53A_54F_55F_67L_, Q9UKT9]" readout_number=3.38
sequence_chain="FACNQCGRGFTQKGNLLRHIKL [46F_47A_49N_50Q_52G_53R_54G_55F_67L_, Q9UKT9]" readout_number=-2.53
sequence_chain="FLCNICGARFTQKGNLLRHIKL [46F_47L_49N_50I_52G_53A_54R_55F_67L_, Q9UKT9]" readout_number=-1.1
sequence_chain="FCCNQCGRVFTQKGNLLRHIKL [46F_47C_49N_50Q_52G_53R_54V_55F_67L_, Q9UKT9]" readout_number=-2.29

// log2 fold change of degron read counts lookup, key: FECEICGALFTQKGNLLRHIKL [46F_47E_49E_50I_52G_53A_54L_55F_67L_, Q9UKT9]
-2.06

// log2 fold change of degron read counts lookup, key: FACEICGAFFTQKGNLLRHIKL [46F_47A_49E_50I_52G_53A_54F_55F_67L_, Q9UKT9]
2.61

// log2 fold change of degron read counts lookup, key: FWCEICGARFTQKGNLLRHIKL [46F_47W_49E_50I_52G_53A_54R_55F_67L_, Q9UKT9]
3.43

// log2 fold change of degron read counts lookup, key: FWCNICGARFTQKGNLLRHIKL [46F_47W_49N_50I_52G_53A_54R_55F_67L_, Q9UKT9]
2.19

// log2 fold change of degron read counts lookup, key: FYCEICGHSFTQKGNLLRHIKL [46F_47Y_49E_50I_52G_53H_54S_55F_67L_, Q9UKT9]
-2.01

// log2 fold change of degron read counts lookup, key: FCCNICGARFTQKGNLLRHIKL [46F_47C_49N_50I_52G_53A_54R_55F_67L_, Q9UKT9]
1.4

// log2 fold change of degron read counts lookup, key: FQCNICGARFTQKGNLLRHIKL [46F_47Q_49N_50I_52G_53A_54R_55F_67L_, Q9UKT9]
-0.916

// log2 fold change of degron read counts lookup, key: LLCNQCGFQCTQKGNLLRHIKL [46L_47L_49N_50Q_52G_53F_54Q_55C_67L_, Q9UKT9]
-2.02

// log2 fold change of degron read counts lookup, key: FTCEICGARFTQKGNLLRHIKL [46F_47T_49E_50I_52G_53A_54R_55F_67L_, Q9UKT9]
1.84

// log2 fold change of degron read counts lookup, key: FDCNQCGHQFTQKGNLLRHIKL [46F_47D_49N_50Q_52G_53H_54Q_55F_67L_, Q9UKT9]
-2.63

// log2 fold change of degron read counts lookup, key: FNCDQCGAAFTQKGNLLRHIKL [46F_47N_49D_50Q_52G_53A_54A_55F_67L_, Q9UKT9]
-1.89

Source of measurements: the supplement of paper PMC12645437
